System: Wolbachia pipientis
experimentalDetails: Anti-Wolbachia Cell-Based Screen
Format: functional
Set-up: scale not given: in the data most compounds retested in dose-response had high values
protocolConditions: 5 µM
Hit rate of the full screen: of about 48,000 compounds, about 13,000 (27%) showed an effect of 50% or more. Some of the results follow.
Labelling: Percent Effect reported below 10% becomes Met; at or above becomes Not met.

- O=C(NC1CC2(CCN(CCO)CC2)c2ccccc21)c1ccno1.O=C(O)C(F)(F)F (configuration not stated): Met
- Cc1ccccc1N1CCCN(C(=O)CCc2cccnc2)CC1: Not met
- CCn1ccnc1CN1CCN(c2nc(C)cc(OC)n2)CC1: Met
- Cc1cc(C(=O)NCC(=O)NC(c2ncccc2C)C(C)C)c(C)o1 (configuration not stated): Met
- CCc1ncc2c(n1)CN(C(=O)c1c(C)[nH]c3c1C(=O)CCC3)C2: Not met
- Cc1cccc(-n2cnc(Cl)c2C(=O)O)c1: Not met
- CCc1nc(-c2cncnc2C2CCNC2)no1 (configuration not stated): Not met
- Cc1ccccc1C(=O)N1CCN(c2ccc(-n3cncn3)nn2)CC1: Not met
- COc1nc2ccccc2cc1CN1CCC(CNS(C)(=O)=O)C1 (configuration not stated): Met
- Cc1cccc(-n2nc(CC(C)C)nc2[C@H](C)O)c1: Met
- O=C1Nc2ccccc2NC12CCN(Cc1nnc(C3CC3)o1)CC2: Not met
- Cc1nc(-c2cncnc2C2CCCNC2)no1.Cl.Cl (configuration not stated): Not met
- Cc1ncc(S(C)(=O)=O)c(C2CCCNC2)n1 (configuration not stated): Met
- CSC(C)(C)CNC(=O)NCC[S+]([O-])c1ccccc1F (configuration not stated): Met
- COC(=O)C1Cc2nc[nH]c2CN1Cc1ccc(Sc2ncccn2)o1 (configuration not stated): Met
- CC(C)CNC(=O)c1ccc2nnc(C3CCN(S(C)(=O)=O)C3)n2c1 (configuration not stated): Met
- CN1CC2(CCN(C(=O)c3ccc4c(=O)n(C)cnc4c3)C2)OC1=O (configuration not stated): Met

* * *

Tested on: Wolbachia pipientis
experimentalDetails: Anti-Wolbachia Cell-Based Screen
Type: functional
Set-up: scale not given: in the data most compounds retested in dose-response had high values
protocolConditions: 5 µM
The campaign covered roughly 48,000 compounds. About 13,000 (27%) showed an effect of 50% or more. Some of the results follow.
assayReadout: Percent Effect (%)

- Cc1cc(C(N)=O)ccc1NC(=O)c1nc(N2CCCCC2)ncc1Cl: -13.62
- Cc1cccc(C(=O)NCc2ccc(N3CCCCC3)nc2)n1: -4.595
- CCc1cc(=O)[nH]c(-c2ccc(NCCc3ccc(O)cc3)nc2)n1: -8.547
- Cc1cc(C)nc(N2CCc3ccc(OC(F)F)cc3C2)n1: 7.415
- NS(=O)(=O)c1ccc(CNC(=O)c2ccc(Cl)cc2F)cc1: -5.173
- CCC[C@H]1CN(c2nccc(OC)n2)C[C@@H]1NS(=O)(=O)N(C)C: 12.34
- Cc1nc2cc(=O)[nH]n2c(C)c1CC(=O)Nc1cnn(C)c1: -2.134

* * *

Test system: Wolbachia pipientis
experimentalDetails: Anti-Wolbachia Cell-Based Screen
Type: functional
Parameters: scale not given: in the data most compounds retested in dose-response had high values
protocolConditions: 5 µM
The whole screen tested about 48,000 compounds, of which about 13,000 (27%) showed an effect of 50% or more. The list shows a part of the results.
Below is a list of entries, each paired with its recorded Percent Effect value.
assayReadout: Percent Effect (%)

• Cc1cccc(NC2CCN(C(=O)Nc3ccncc3)CC2)n1 = 110.6
• N#Cc1ccccc1N1CCCN(CC(=O)Nc2ccccc2Cl)CC1 = 11.85
• COc1ccccc1CC(=O)NC(CC(=O)O)c1ccc(C)cc1 (stereo not drawn) = -6.3
• O=C(Nc1ccc(F)c(Br)c1)N1CCCC1 = 7.891
• Cn1cnnc1CC1CCN(Cc2nn(C)c3cccc(Cl)c23)CC1 = -2.14
• Cc1cnc(CN2CCCC(c3nc4ccccc4n3C(C)C)C2)o1 (stereo not drawn) = -8.983
• Cc1cccc(NC2CCN(C(=O)Nc3ccc(F)c(F)c3)CC2)n1 = 86.81
• O=C(c1cc(COc2ccc3c(c2)OCO3)[nH]n1)N1CCCC1 = -5.101

* * *

System: Wolbachia pipientis
experimentalDetails: Anti-Wolbachia Cell-Based Screen
Assay type: functional
Design: scale not given: in the data most compounds retested in dose-response had high values
protocolConditions: 5 µM
The campaign covered roughly 48,000 compounds. About 13,000 (27%) showed an effect of 50% or more. The list shows a part of the results.
assayReadout: Percent Effect (%)

* O=C(NCC1CC[C@@]2(CNCCOC2)O1)c1cnccn1 (some centres not stated) | -4.727
* COc1ccc(C(=O)N2CCOCC(CO)C2)cc1N1CCOCC1 (configuration not stated) | 2.678
* NC(=O)C1CCN(C(=O)CSC2CCCc3ccccc32)CC1 (configuration not stated) | -6.301
* Cc1cc(-c2nn(C)c(Cl)c2CN2CCOCC(O)C2)no1 (configuration not stated) | 7.686
* Cc1cc(=O)[nH]c(SCC(=O)N(C)CC2Cc3ccccc3CN2C)n1 (configuration not stated) | -1.755
* CCN1C[C@H]2CCN(C(=O)NC3CCCC3)CC[C@H]2S1(=O)=O | 7.84
* O=C(c1cncs1)N1CCOCC(Cc2ccncn2)C1 (configuration not stated) | 102.2
* Cn1ccnc1CN1CCCN(C(=O)c2ccc3[nH]cnc3c2)CC1 | 100.5
* CCOCCn1nc(C)cc1C(=O)N1CCOCC(CO)C1 (configuration not stated) | -4.092
* O=C(c1ccncc1)N1C[C@@H]2CC[C@H](C1)N(C(=O)N1CCOCC1)C2 | 7.35
* CC(C)c1nnc(CN(C)C(c2ccc(F)cc2)c2cccnc2)o1 (configuration not stated) | 1.551
* Cc1ccc(N(C)Cc2nnnn2C2CC2)c(C)c1 | -2.761
* CC(SCC(=O)NC(N)=O)c1ccc(Cl)cc1 (configuration not stated) | 8.768
* CN(C)CC(=O)N1CCOCC(Cc2ccccn2)C1 (configuration not stated) | 100.7
* CC(NC1(CNC(=O)NC2CC2)CCOCC1)c1ccccc1 (configuration not stated) | 5.387
* Cc1ccn(Cc2nc(C(C)OCC(C)C)no2)c(=O)c1 (configuration not stated) | 12.04
* Cc1nc(CNC2(C(=O)OC(C)(C)C)CCCC2)oc1C | -20.11

* * *

Below is a list of entries, each paired with its recorded Percent Effect value.
Tested on: Wolbachia pipientis
experimentalDetails: Anti-Wolbachia Cell-Based Screen
Type: functional
Parameters: scale not given: in the data most compounds retested in dose-response had high values
protocolConditions: 5 µM
The whole screen tested about 48,000 compounds, of which about 13,000 (27%) showed an effect of 50% or more. The list shows a part of the results.
assayReadout: Percent Effect (%)

• CC(C)Oc1cccc(CNC(Cc2ccsc2)c2nccs2)c1.Cl (centres undefined) = 94.44
• CS(=O)(=O)N1CCC(C(=O)NC(Cc2ccsc2)c2nccs2)CC1 (centres undefined) = -7.112
• COc1ccc(C2CCN(S(=O)(=O)CCCC#N)CC2)cc1 = -10.18
• CCc1c(C(=O)N2CC(C)OC(C)(C)C2)cnn1-c1ccccn1 (centres undefined) = -9.37
• CN(C)S(=O)(=O)N1CCN(C(=O)OC(C)(C)C)CC12CCCCC2 = 120.5
• CC(=O)N[C@@H]1CN(Cc2nccn2C)C[C@H]1c1ccc(C)cc1 = -2.996
• CC(NC(=O)NC1CCN(Cc2ccccn2)CC1)c1nncn1C (centres undefined) = 0.2394
• Cn1nccc1CNC(=O)Cn1nc(C(F)(F)F)cc1C1CC1 = 104.1
• CN(CC1COc2ccccc2O1)C(=O)C1=NN(C)C(=O)CC1 (centres undefined) = -4.029
• CC(C)(C)OC(=O)N1CCN(S(C)(=O)=O)C2(CCCCC2)C1 = 138.8
• CN(Cc1ccco1)C(=O)c1ccc(=O)n(C)c1 = 12.27
• CC(NC(=O)NCc1cccc(CN2CCCC2)c1)c1nccs1 (centres undefined) = -2.261
• Cc1ccc(N2N=C(C(=O)N(C)Cc3ccco3)NCC2=O)cc1 = 2.373
• Cc1noc(CCNS(=O)(=O)N2CCCC2c2ccco2)n1 (centres undefined) = -8.363
• Cn1nccc1CNC(=O)CCn1nc(C(F)(F)F)c(Cl)c1C1CC1 = 93.44
• CCN(Cc1ccco1)C(=O)C1=NN(c2ccccc2)C(=O)CN1 = 5.452
• O=C(NCCc1ccsc1)Nc1cccnc1N1CCCC1 = 0.6987
• CC(C)(C)OC(=O)N1CCN(S(=O)(=O)CCCC#N)C2(CCCCC2)C1 = 111.4
• O=C(NC(Cc1ccsc1)c1nccs1)C1CC1 (centres undefined) = 111.3

* * *

Test system: Wolbachia pipientis
experimentalDetails: Anti-Wolbachia Cell-Based Screen
Format: functional
Design: scale not given: in the data most compounds retested in dose-response had high values
protocolConditions: 5 µM
In all, about 48,000 compounds went through this assay and about 13,000 (27%) showed an effect of 50% or more. The list shows a part of the results.
assayReadout: Percent Effect (%)

- Cc1ccc2c(c1)C(NC1CCN(C)CC1)CCCO2 (stereo not given): 0.3143
- Cc1ncsc1C(=O)N[C@@H](Cc1ccccc1)C(N)=O: 5.528
- Cc1ccc2c(c1)[C@@H](CC(=O)N(C)C)CCO2: 103.2
- Cc1ccc(S(=O)(=O)N2C[C@H](C3CC3)[C@@H](N)C2)cc1F: -0.3318
- COc1cccc(Cn2ncc(N(C)CCc3ccccc3)cc2=O)c1: -17.12
- COc1ccc(CNC(C)c2cnn(C)c2)cc1OC1CCCC1 (stereo not given): 106.9
- Cn1nccc1C(=O)N1CCCN(CCCc2ccccc2)CC1: -12.37
- COc1ccc(CNC(c2cccc(F)c2)c2cnn(C)c2)cc1 (stereo not given): 4.131
- CC(NCCN1CCN(C(=O)C2CCCC2)CC1)c1cnn(C)c1 (stereo not given): 3.842
- O=C(c1ncoc1C1CC1)N1CCN(CCOc2ccccc2)CC1: 94.73
- COCC(=O)N1CCC2(CC1)CC(N1CCOCC1)c1ccc(C)cc12 (stereo not given): 6.475
- CN(C(=O)CN1CCc2nn(C)c(=O)cc2C1)c1nccs1: -17.97
- CN(Cc1cccc(OC(F)(F)F)c1)C(=O)c1ccncc1F: 3.384
- O=S(=O)(CC1CC1)c1ncc(CN2CCOCC2)n1CC1CCCO1 (stereo not given): 1.621
- Cc1ccc(C(=O)N(C)CC(=O)Nc2cccc(C)n2)cn1: -9.643
- Cc1ccc(C2CSCCN2CC(=O)N2CCOCC2)cc1 (stereo not given): 2.726
- O=C(O)C(F)(F)F.O=c1ccc2c(n1CC1CC1)CCC(NCc1cccs1)C2 (stereo not given): 108.8
- Cn1c2c(ccc1=O)CC(Nc1ncc(F)cn1)CC2.O=C(O)C(F)(F)F (stereo not given): -3.561
- Cc1ccc2c(c1)[C@@H](CC(=O)N1CCN(C)CC1)CCO2: 86.47
- CCSc1nc(N)c(NC(=O)c2ccc(C)cc2)c(=O)[nH]1: -2.31
- Cc1nc(C2CCN(C(=O)c3ccn(C)n3)CC2)c2sccn12: 109.4
- CC(NCc1cccc(COC2CCCC2)c1)c1cnn(C)c1 (stereo not given): 126.5
- Cc1ccc2c(ccn2CCC(=O)N2CCC(C(N)=O)CC2)c1: 23.62
- Cn1nc(C2CC2)c2c1NC(=O)CC2c1cc(CN2CCCC2)cs1 (stereo not given): -26.2
- CC(O)CN1CCC(CNCc2ccccc2OC(F)(F)F)CC1 (stereo not given): -2.479
- COCCN1C(=O)CC[C@]12CC[C@@H](NCc1cccnc1OC)CC2.O=C(O)C(F)(F)F.O=C(O)C(F)(F)F: -1.329
- Cc1ncsc1C(=O)Nc1ccccn1: 113.7
- Cn1cc(C(NCc2ccc(F)cc2)c2cccc(F)c2)cn1 (stereo not given): -2.157
- Cc1cc(C(=O)N2CCC(n3cc(CO)nn3)CC2)ccc1F: 2.644
- CN1CCN(C[C@@H]2CN(Cc3c(Cl)cncc3Cl)C[C@@H]2CO)CC1: -1.243
- COCCN1C[C@@H]2CN(c3cc(OC)ncn3)CCC[C@]2(C(=O)O)C1.O=C(O)C(F)(F)F: -26.02
- Cc1ccc(S(=O)(=O)N2CCCC3(CCCN3S(C)(=O)=O)C2)cc1F (stereo not given): 98
- COc1ncccc1CN1CCc2[nH]nc(C(=O)N3CCCC3C)c2C1.O=C(O)C(F)(F)F.O=C(O)C(F)(F)F (stereo not given): 4.676
- CC(C(=O)N1CCN(CCOc2ccccc2)CC1)n1cc(Cl)cn1 (stereo not given): 9.787
- Cc1ccc2c(c1)[C@@H](CC(=O)N1CCOCC1)CCO2: 86.47
- CN(Cc1cccc(OC(F)(F)F)c1)C(=O)Cc1ccon1: -6.414
- CC(O)c1cn(CC2CCN(C(=O)c3cscn3)CC2)nn1 (stereo not given): -31.81
- Cc1oc(C)c(C(=O)Nc2ccccn2)c1C: 13.13
- CN(Cc1ccccc1OC(F)(F)F)C(=O)C1CC1: 0.731
- O=C(NCC(CO)Cc1cccc(OC(F)(F)F)c1)c1cnccn1 (stereo not given): 103

This collection of values is drawn from ChEMBL document CHEMBL3988442.
